# test summary: Metabolic stability in dog liver S9 fraction assessed as compound remaining at 10 uM after 60 mins by HPLC analysis in absence of NADP
# Type: ADME, subcellular, Canis lupus familiaris
# experimental setup: read-out: Stability
Binarize remaining at 1 h, 10 µM at 60%; below is Satisfied, at or above is Not satisfied.

Input: Lab log: compare recorded remaining at 1 h, 10 µM with 60%; is it strictly lower for CC(C)OC(=O)[C@H](C)NP(=O)(OC[C@H]1O[C@@H](n2cnc3c(=O)[nH]c(N)nc32)[C@](C)(O)[C@@H]1O)Oc1cccc2ccccc12 (stereo partly drawn) ?
Output: Not satisfied

Input: Hello, is remaining at 1 h, 10 µM of the following compound strictly smaller than 60%? C[C@H](NP(=O)(OC[C@H]1O[C@@H](n2cnc3c(=O)[nH]c(N)nc32)[C@](C)(O)[C@@H]1O)Oc1ccc2ccccc2c1)C(=O)OCc1ccccc1 (stereo partly drawn)
Output: Satisfied

Input: Report whether reported remaining at 1 h, 10 µM is lower than 60% (strictly) for C[C@H](NP(=O)(OC[C@H]1O[C@@H](n2cnc3c(=O)[nH]c(N)nc32)[C@](C)(O)[C@@H]1O)Oc1cccc2ccccc12)C(=O)OCC(C)(C)C (stereo partly drawn)
Output: Not satisfied

Input: Quick check: remaining at 1 h, 10 µM of COC(=O)[C@H](CCSC)NP(=O)(OC[C@H]1O[C@@H](n2cnc3c(=O)[nH]c(N)nc32)[C@](C)(O)[C@@H]1O)Oc1cccc2ccccc12 (stereo partly drawn) under 60%?
Output: Satisfied

Input: Strictly below 60% in remaining at 1 h, 10 µM? CC[C@H](C)[C@H](NP(=O)(OC[C@H]1O[C@@H](n2cnc3c(=O)[nH]c(N)nc32)[C@](C)(O)[C@@H]1O)Oc1cccc2ccccc12)C(=O)OCc1ccccc1 (stereo partly drawn)
Output: Not satisfied

Input: Check if remaining at 1 h, 10 µM falls below 60% for CC(C)C[C@H](NP(=O)(OC[C@H]1O[C@@H](n2cnc3c(=O)[nH]c(N)nc32)[C@](C)(O)[C@@H]1O)Oc1cccc2ccccc12)C(=O)OCc1ccccc1 (stereo partly drawn) .
Output: Satisfied

Input: Is remaining at 1 h, 10 µM of CC(C)[C@H](NP(=O)(OC[C@H]1O[C@@H](n2cnc3c(=O)[nH]c(N)nc32)[C@](C)(O)[C@@H]1O)Oc1cccc2ccccc12)C(=O)OCc1ccccc1 (stereo partly drawn) strictly below 60%?
Output: Not satisfied

Input: I wonder whether COC(=O)[C@H](C)NP(=O)(OC[C@H]1O[C@@H](n2cnc3c(=O)[nH]c(N)nc32)[C@](C)(O)[C@@H]1O)Oc1cccc2ccccc12 (stereo partly drawn) has remaining at 1 h, 10 µM below 60%. Can you tell?
Output: Not satisfied

Sourced from ChEMBL document CHEMBL1177718
